# Experimental Protocol: Toxicokinetic evaluation in dogs
# Type: in vivo
# Condition Label: female, beagle, dog, blood, po, 6 mg/kg/day, female dogs, 6 mg/kg/day oral, Day 88
Property: Tmax (h)
Reply with just the number (in h).

Tmax reported for this compound Clc1ccc([C@]23CNCC2C3)cc1Cl (single isomer, unassigned; (+)) : 1

----------
# Experimental Protocol: Toxicokinetic evaluation in dogs
# Type: in vivo
# Condition Label: male, beagle, dog, blood, po, 2 mg/kg/day, male dogs, 2 mg/kg/day oral, Day 0
Property: Tmax

Tmax reported for this compound Clc1ccc([C@]23CNCC2C3)cc1Cl (single isomer, unassigned; (+)) : 1 h

----------
# Experimental Protocol: Toxicokinetic evaluation in dogs
# Format: in vivo
# Condition Label: female, beagle, dog, blood, po, 6 mg/kg/day, female dogs, 6 mg/kg/day oral, Day 0; read-out: AUC0-24 h
Property: AUC(0-t) (ng·h/mL)
Reply with just the number (in ng·h/mL).

AUC(0-t) reported for this molecule Clc1ccc([C@]23CNCC2C3)cc1Cl (single isomer, unassigned; (+)) : 13600

----------
# Experimental Protocol: Toxicokinetic evaluation in dogs
# Format: in vivo
# Condition Label: male, beagle, dog, blood, po, 2 mg/kg/day, male dogs, 2 mg/kg/day oral, Day 88
Property: Cmax (ng/mL)
Reply with just the number (in ng/mL).

Cmax reported for this compound Clc1ccc([C@]23CNCC2C3)cc1Cl (single isomer, unassigned; (+)) : 753
